Biological target: α5β3γ2 GABAA receptors (Ltk cell membranes) (Homo sapiens, UniProt P18507+P31644)
Construct: membranes
Sequence (P31644 32-462): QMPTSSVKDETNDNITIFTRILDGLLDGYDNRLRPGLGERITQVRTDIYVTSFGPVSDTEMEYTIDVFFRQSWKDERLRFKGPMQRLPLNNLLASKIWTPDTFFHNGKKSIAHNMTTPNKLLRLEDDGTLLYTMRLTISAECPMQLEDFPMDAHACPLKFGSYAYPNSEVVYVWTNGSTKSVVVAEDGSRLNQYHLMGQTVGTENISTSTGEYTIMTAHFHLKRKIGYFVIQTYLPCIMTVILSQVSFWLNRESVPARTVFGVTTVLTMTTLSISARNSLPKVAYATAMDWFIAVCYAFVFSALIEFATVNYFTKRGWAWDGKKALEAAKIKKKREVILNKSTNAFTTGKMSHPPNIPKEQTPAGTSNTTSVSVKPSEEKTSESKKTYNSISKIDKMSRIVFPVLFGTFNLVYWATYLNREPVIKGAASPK
Sequence (P28472 26-473 partner): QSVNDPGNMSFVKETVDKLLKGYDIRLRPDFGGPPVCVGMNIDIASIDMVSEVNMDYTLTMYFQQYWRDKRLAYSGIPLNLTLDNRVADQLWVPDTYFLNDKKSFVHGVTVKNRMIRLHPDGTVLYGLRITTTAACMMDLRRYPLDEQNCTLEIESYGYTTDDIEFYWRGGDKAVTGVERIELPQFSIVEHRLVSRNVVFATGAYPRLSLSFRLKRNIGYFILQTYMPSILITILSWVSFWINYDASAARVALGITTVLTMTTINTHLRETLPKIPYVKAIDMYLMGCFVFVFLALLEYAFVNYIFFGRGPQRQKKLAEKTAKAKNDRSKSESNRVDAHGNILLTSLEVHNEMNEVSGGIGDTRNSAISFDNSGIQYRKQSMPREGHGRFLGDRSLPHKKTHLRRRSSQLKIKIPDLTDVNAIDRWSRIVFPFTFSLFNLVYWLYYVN
Sequence (P18507 40-475): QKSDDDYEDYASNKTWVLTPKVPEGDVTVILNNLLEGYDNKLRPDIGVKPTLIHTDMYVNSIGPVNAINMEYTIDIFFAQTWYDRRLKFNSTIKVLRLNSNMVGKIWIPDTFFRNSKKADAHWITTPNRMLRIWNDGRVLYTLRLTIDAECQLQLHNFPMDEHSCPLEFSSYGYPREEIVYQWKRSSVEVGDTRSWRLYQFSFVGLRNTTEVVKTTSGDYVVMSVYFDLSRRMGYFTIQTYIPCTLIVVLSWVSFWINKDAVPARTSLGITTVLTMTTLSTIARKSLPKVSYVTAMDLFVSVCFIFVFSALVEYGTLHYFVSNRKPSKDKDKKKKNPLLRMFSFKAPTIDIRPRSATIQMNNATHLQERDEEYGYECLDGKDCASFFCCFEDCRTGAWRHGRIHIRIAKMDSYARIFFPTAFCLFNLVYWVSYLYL
Experiment: Binding activity of test compounds on GABAAR: inhibition of [3H]Ro15-1788 binding
Conditions: GABA α5 Binding Ki Values, inhibition of [3H]Ro15-1788 binding; reported as ranges
The reader will find reported Ki values listed item by item below.

compound: C#Cc1ncn2c1C(Cc1cccc(F)c1)(Cc1cccc(F)c1)c1cnnn1-c1cc(OC)ccc1-2
tgt: α5β3γ2 GABAA receptors (Ltk cell membranes) (Homo sapiens, UniProt P18507+P31644)
value kind: Ki
meas value: > 1000 nM
--
compound: COc1ccc2c(c1)-c1nnc(COc3cccnc3)n1Cc1c(Br)ncn1-2
tgt: α5β3γ2 GABAA receptors (Ltk cell membranes) (Homo sapiens, UniProt P18507+P31644)
value kind: Ki
meas value: < 100 nM

Ask: Would you kindly share the measured Ki for "CCOC(=O)c1ncn2c1Cc1c(Cc3ccc(Cl)cc3)nnn1-c1cc(F)ccc1-2" ?
Result: < 100 nM

Ask: Try "CCOCc1nnc2n1Cc1c(C3=N[C@@H](c4ccccc4)CO3)ncn1-c1ccc(Cl)cc1-2" next.
Result: < 100 nM

Ask: Try COCc1nnc2n1Cc1c(C3=NC(c4ccccc4)CO3)ncn1-c1ccc(Cl)cc1-2 (centres unmarked) next.
Result: < 100 nM

Ask: Try "FC(F)(F)COCc1nnc2n1Cc1c(C3=NCCO3)ncn1-c1ccc(Cl)cc1-2" next.
Result: 100 to 1000 nM
